- measured on: human κ-chain (human)
- test name: Kd at pH 8, method not stated; mutation ticked in PpL
reported metric: pKd
Notebook: values listed as pKd are -log10 of the concentration (mol/L).

Look up pKd for this binder: F39W PpL (protein) MNIKFAGKETPETPEEPKEEVTIKVNLIFADGKIQTAEWKGTFEEATAEAYRYADLLAKVNGEYTADLEDGGNHMNIKFAGK
6.80

Data provenance is patent US20020137918A1.
